Biological target: ALK2(R206H) (Homo sapiens, UniProt Q04771, R206H)
Sequence (Q04771 21-509 R206H): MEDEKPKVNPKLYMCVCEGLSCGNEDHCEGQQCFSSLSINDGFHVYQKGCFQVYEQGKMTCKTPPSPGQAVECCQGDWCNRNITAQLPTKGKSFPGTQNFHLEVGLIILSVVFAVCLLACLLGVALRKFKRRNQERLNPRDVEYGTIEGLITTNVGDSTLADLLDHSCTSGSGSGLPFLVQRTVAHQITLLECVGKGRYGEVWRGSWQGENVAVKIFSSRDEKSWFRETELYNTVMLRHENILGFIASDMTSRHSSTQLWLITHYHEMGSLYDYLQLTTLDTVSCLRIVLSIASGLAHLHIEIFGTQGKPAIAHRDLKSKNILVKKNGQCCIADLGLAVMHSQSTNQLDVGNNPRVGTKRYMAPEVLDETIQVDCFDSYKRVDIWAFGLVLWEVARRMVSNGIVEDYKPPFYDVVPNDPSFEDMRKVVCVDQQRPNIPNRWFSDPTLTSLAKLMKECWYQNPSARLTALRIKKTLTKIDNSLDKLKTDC
Test: ALK2(R206H) functional assays
Conditions: several functional assays; read-out: ALK2(R206H) activity potency (IC50)
pIC50: −log10 of the molar value.
measured_parameter: pIC50

pIC50 of COc1cc(-n2cnc(Nc3nc(N4CCC[C@H]4C(N)=O)nc4sccc34)c2)cc(OC)c1OC.O=C(O)CC(O)(CC(=O)O)C(=O)O [Compound A] , assay on ALK2(R206H) (Homo sapiens, UniProt Q04771, R206H), is > 7.00
